# Test target: Nuclear receptor ROR-gamma (Homo sapiens) (UniProt P51449)
# Protocol details: qHTS assay to identify small molecule antagonists of the retinoid-related orphan receptor gamma (ROR-gamma) signaling pathway (AID 1159521;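 also: CHO cells with doxycycline inducible ROR-gamma driving an RORE luciferase reporter; top concentration of the series differs between compounds; % is scaled to controls: 0 for no effect and ±100 for the full control effect; nearly all actives have a fitted effect of over 50% in size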)
# Measurement setup: Tet-on RORgamma CHO cells, RORE-luciferase, 16 h; series mostly up to 92.4 µM
Results filed as inconclusive are left out. Active and inactive are the calls of the source. Calls follow the shape of the dose curve; as a rule, active = well fitted inhibition curve with a large enough effect in the repeat runs; inconclusive = weak or mixed curves, or effect the other way; inactive = no such curve, though single readings can be large or run the other way.
Quantity measured: activity change, negative = inhibition

Before answering, review these 5 worked examples.
Compound	activity change, negative = inhibition
CC1(C)O[C@H]2CC(=O)OC[C@]23[C@H]2CC[C@@]4(C)[C@H](c5ccoc5)OC(=O)[C@H]5O[C@]54[C@]2(C)C(=O)C[C@@H]13	inactive
CN(C)C(C)(C)CO	inactive
CCC(C(=O)OCCN1CCOC(c2ccccc2)C1C)c1ccccc1 (stereo unspecified)	inactive
Nc1nnnn1-c1ccccc1	inactive
CCO[Si](CC)(OCC)OCC	inactive

Shift focus to the following entry.
INPUT: Look up activity change, negative = inhibition: `CCn1cc(C(=O)O)c(=O)c2cnc(N3CCCC3)nc21`
OUTPUT: 14.3% [at 8.39 µM] (inactive)

====

# Protocol details: qHTS assay to identify small molecule antagonists of the peroxisome proliferator-activated receptor gamma (PPARg) signaling pathway - cell viability counter screen (AID 743194); also: % is scaled to controls: 0 for no effect and ±100 for the full control effect; nearly all actives have a fitted effect of over 55% in size
# Measurement setup: PPARg-bla HEK293H viability, CellTiter-Glo luminescence, 17 h, co-treated with 50 nM rosiglitazone; series mostly up to 62.6 µM
Inconclusive results are not listed. Active and inactive are the calls of the source. Calls follow the shape of the dose curve; as a rule, active = well fitted cell-killing curve with a large enough effect in the repeat runs; inconclusive = weak or mixed curves, or effect the other way; inactive = no such curve, though single readings can be large or run the other way.
Quantity measured: activity change, negative = cytotoxicity

Before answering, review these 6 worked examples.
Molecule	Assay result
CCOc1ccccc1OCC1CNCCO1 (configuration not stated)	inactive
CC1CC(=O)CC(C)(C)C1 (configuration not stated)	inactive
c1ccc2cnccc2c1	inactive
C[C@@H](O)C(=O)O	inactive
O=C(O)[C@H](O)c1ccccc1	inactive
O=C(O)CSCC(=O)NC1CCSC1=O (configuration not stated)	inactive

Shift focus to the following entry.
INPUT: Look up activity change, negative = cytotoxicity: `O=S(=O)(O)c1ccc2c(N=Nc3ccc(S(=O)(=O)O)c4ccccc34)c(O)c(S(=O)(=O)O)cc2c1`
OUTPUT: -3.57% [at 5.95 µM] (inactive)

====

# Protocol details: qHTS assay to identify small molecule HDAC inhibitors (AID 1259364);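 also: wild-type HCT-116 cells with endogenous class I/II HDAC activity; nearly all actives have a fitted effect of over 45% in size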
# Measurement setup: HCT-116 HDAC-Glo I/II luminescence, 2 h; series mostly up to 92.4 µM
# Description: U.S. Tox21 Program National Center for Advancing Translational Sciences [NCATS] NIH Chemical Genomics Center [NCGC] U.S. Environmental Protection Agency [EPA] National Institutes of Environmental Health Sciences [NIEHS] National Toxicology Program [NTP] U.S. Food and Drug Administration [FDA] Tox21 Assay Overview: Histone deacetylases (HDACs) are a group of epigenetic enzymes that regulate gene expression by histone deacetylation. […]
Records with an inconclusive call do not appear. Activity calls are given as the source filed them. Calls come from the whole dose curve; as a rule, active = well fitted inhibition curve with a large enough effect in the repeat runs; inconclusive = weak or mixed curves; inactive = flat fitted curve, though single readings scatter.
Your response should consist of one outcome taken from active, inactive

Consider the following illustrative entries.
Compound	Classification
C=Cc1ccc(C(C)(C)C)cc1	inactive
Cc1c(N)cccc1Cl	inactive
COC(C)(OC)OC	inactive
CC(C)COC(=O)c1ccccc1	inactive
COC(=O)CCCCC(CCSS/C(CCO)=C(\C)N(C=O)Cc1cnc(C)nc1N)SC(C)=O (stereo unspecified)	inactive
COc1cc2c(cc1OC)C(=O)C(CC1CCN(Cc3ccccc3)CC1)C2 (stereo unspecified)	inactive
c1ccc2cnccc2c1	inactive
N#Cc1ccccc1O	inactive
CCCSSCCC	inactive
CN1CCOC(c2ccccc2)c2ccccc2C1 (stereo unspecified)	inactive

INPUT: Each compound tested received a call. Report the one for `O=C1NC(c2ccccc2)(c2ccccc2)C(=O)N1COP(=O)(O)O` .
OUTPUT: inactive

INPUT: Each compound tested received a call. Report the one for CC1c2ccccc2CN1NC(=O)c1ccc(Cl)c(S(N)(=O)=O)c1 (stereo unspecified) .
OUTPUT: inactive

INPUT: Each compound tested received a call. Report the one for `CCCc1ccc(O)cc1` .
OUTPUT: inactive

INPUT: Each compound tested received a call. Report the one for `Cc1ccc2c(c1)C(=O)c1ccccc1C2=O` .
OUTPUT: active

INPUT: Each compound tested received a call. Report the one for `O=C(Cn1ccnc1[N+](=O)[O-])NCc1ccccc1` .
OUTPUT: inactive
